Molecular target: GST tagged truncated human mutant G2019S LRRK2 (Homo sapiens (Human), UniProt Q5S007, G2019S)
Sequence (Q5S007 970-2527 G2019S): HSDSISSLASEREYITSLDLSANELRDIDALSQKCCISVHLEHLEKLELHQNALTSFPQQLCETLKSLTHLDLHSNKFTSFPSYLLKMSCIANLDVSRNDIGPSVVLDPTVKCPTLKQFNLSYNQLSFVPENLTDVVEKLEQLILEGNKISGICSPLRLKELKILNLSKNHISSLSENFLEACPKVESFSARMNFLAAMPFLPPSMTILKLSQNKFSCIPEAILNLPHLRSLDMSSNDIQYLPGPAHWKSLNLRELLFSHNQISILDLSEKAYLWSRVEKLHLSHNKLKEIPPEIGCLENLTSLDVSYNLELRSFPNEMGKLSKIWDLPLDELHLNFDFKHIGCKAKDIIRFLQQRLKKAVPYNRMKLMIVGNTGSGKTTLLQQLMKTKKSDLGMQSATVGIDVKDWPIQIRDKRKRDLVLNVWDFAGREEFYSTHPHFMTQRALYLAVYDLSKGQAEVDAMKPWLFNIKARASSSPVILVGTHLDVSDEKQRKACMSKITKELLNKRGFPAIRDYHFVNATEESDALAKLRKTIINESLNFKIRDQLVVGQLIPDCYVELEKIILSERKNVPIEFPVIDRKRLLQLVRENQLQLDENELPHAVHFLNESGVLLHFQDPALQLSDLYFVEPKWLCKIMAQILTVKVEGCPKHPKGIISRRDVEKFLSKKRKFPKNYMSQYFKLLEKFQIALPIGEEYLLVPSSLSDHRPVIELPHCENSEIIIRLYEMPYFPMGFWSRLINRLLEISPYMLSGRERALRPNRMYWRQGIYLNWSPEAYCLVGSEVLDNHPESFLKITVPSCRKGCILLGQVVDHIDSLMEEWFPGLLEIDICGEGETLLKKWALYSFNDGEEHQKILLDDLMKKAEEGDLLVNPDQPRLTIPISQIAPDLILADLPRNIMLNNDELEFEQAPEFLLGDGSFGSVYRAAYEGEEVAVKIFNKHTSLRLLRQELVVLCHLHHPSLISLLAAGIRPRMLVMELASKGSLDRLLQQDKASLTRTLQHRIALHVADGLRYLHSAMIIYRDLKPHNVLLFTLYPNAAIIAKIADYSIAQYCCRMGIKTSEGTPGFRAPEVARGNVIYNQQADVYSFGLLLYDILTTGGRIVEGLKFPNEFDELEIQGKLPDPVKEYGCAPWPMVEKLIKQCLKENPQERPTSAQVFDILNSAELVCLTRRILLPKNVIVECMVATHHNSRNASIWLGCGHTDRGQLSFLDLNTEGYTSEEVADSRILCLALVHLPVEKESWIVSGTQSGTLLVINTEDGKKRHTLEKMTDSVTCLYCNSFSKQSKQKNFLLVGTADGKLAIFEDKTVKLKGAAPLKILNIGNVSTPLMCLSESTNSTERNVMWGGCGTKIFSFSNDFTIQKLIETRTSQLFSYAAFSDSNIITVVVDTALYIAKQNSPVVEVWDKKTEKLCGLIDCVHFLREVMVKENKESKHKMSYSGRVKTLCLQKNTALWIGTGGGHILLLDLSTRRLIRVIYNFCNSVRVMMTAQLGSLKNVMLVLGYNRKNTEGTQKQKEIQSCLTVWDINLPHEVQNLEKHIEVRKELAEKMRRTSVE
Experiment: LRRK2 Km ATP LanthaScreen Assay
Type: biochemical
Conditions: G2019S LRRK2, 134 μM ATP (Km ATP), mean values; read-out: LRRK2 pIC50 (converted)
// values below are reported IC50

{"compound": "N#Cc1cc2cnc(Nc3cnn(C4CC4)c3Cl)nc2cc1[C@H]1CCN(C2COC2)C[C@@H]1F (single isomer, unassigned)", "cmp": "=", "IC50 (nM)": 1.91}
{"compound": "C[C@]1(N2CCC(c3cc4nc(Nc5cnn(C67CC(C6)C7)c5)ncc4cc3Cl)CC2)COC[C@H]1O (single isomer, unassigned)", "cmp": "=", "IC50 (nM)": 3.89}
{"compound": "CC(C)(O)Cn1ncc(Nc2ncc3cc(Cl)c(C4CCN(C5CCOC5)CC4)cc3n2)c1Cl (single isomer, unassigned) [Ex-4.79]", "cmp": "<", "IC50 (nM)": 0.631}
{"compound": "Cc1c(Nc2ncc3cc(Cl)c(C4CCN(CC(O)c5ccc(C#N)cc5)CC4)cc3n2)cnn1C1CC1 (single isomer, unassigned) [Ex-4.220]", "cmp": "=", "IC50 (nM)": 6.17}
{"compound": "CC1(N2CC3(CC(n4cc(Nc5ncc6cc(Cl)c(C7CC78CC8)cc6n5)cn4)C3)C2)COC1 (single isomer, unassigned) [Ex-2.8]", "cmp": "=", "IC50 (nM)": 1.26}
{"compound": "Cc1c(Nc2ncc3cc(Cl)c(C4CCN(CC(O)CC(F)(F)F)CC4)cc3n2)cnn1C1CC1 (single isomer, unassigned) [Ex-4.191]", "cmp": "<", "IC50 (nM)": 0.631}
{"compound": "COCC12CC(n3ncc(Nc4ncc5cc(Cl)c(C6CCN(C7(C)COC7)CC6)cc5n4)c3C)(C1)C2", "cmp": "<", "IC50 (nM)": 0.631}
{"compound": "CC(C)(O)Cn1ncc(Nc2ncc3cc(Cl)c(C4CCN(C5CCOC5)CC4)cc3n2)c1Cl (single isomer, unassigned) [Ex-4.77]", "cmp": "=", "IC50 (nM)": 1.82}
{"compound": "Cc1cc2cnc(Nc3cnn(C4(C)CC4)c3C)nc2cc1C1CCN(CCC#N)CC1", "cmp": "<", "IC50 (nM)": 0.631}
{"compound": "Cc1c(Nc2ncc3cc(Cl)c(C4CCN(CC(O)c5ccc(C#N)cc5)CC4)cc3n2)cnn1C1CC1 (single isomer, unassigned) [Ex-4.226]", "cmp": "=", "IC50 (nM)": 3.72}
{"compound": "Clc1cc2cnc(Nc3cnn(C4CC4)c3Cl)nc2cc1C1CCN(C2COC2)C1 (single isomer, unassigned) [Ex-4.33]", "cmp": "=", "IC50 (nM)": 8.13}
{"compound": "Cc1nsc(Nc2ncc3cc(Cl)c([C@@H]4CCN(C5COC5)C[C@H]4F)cc3n2)c1Cl (single isomer, unassigned) [Ex-4.88]", "cmp": "=", "IC50 (nM)": 3.8}
{"compound": "CC(C)(O)CN1CCC(c2cc3nc(Nc4cnn(C5CC5)c4)ncc3cc2Cl)C1 (single isomer, unassigned) [Ex-1.10]", "cmp": "=", "IC50 (nM)": 28.2}

----------
Biological target: GST tagged truncated human mutant G2019S LRRK2 (Homo sapiens (Human), UniProt Q5S007, G2019S)
Experiment: LRRK2 Km ATP LanthaScreen Assay
Type: biochemical
Conditions: G2019S LRRK2, 134 μM ATP (Km ATP), mean values
Listing of entries alongside the reported LRRK2 pIC50.

{"molecule": "O[C@H]1COC[C@H]1N1CC[C@@H](c2cc3nc(Nc4cnn(C56CC(F)(C5)C6)c4Cl)ncc3cc2Cl)[C@H](F)C1 (single isomer, unassigned)", "LRRK2 pIC50": ">9.20"}
{"molecule": "Cc1nn(C)c(Nc2ncc3cc(Cl)c(C4CCN([C@]5(C)COC[C@@H]5O)CC4)cc3n2)c1C#N (single isomer, unassigned)", "LRRK2 pIC50": 8.05}
{"molecule": "Cc1c(Nc2ncc3cc(Cl)c([C@H]4CCN(C5COC5)C[C@@H]4F)cc3n2)cnn1CC(C)(C)O (single isomer, unassigned)", "LRRK2 pIC50": 8.85}

----------
Reported LRRK2 pIC50 values follow for various molecules
Target: GST tagged truncated human mutant G2019S LRRK2 (Homo sapiens (Human), UniProt Q5S007, G2019S)
Assay: LRRK2 Km ATP LanthaScreen Assay
Assay type: biochemical
Details: G2019S LRRK2, 134 μM ATP (Km ATP), mean values

{"molecule": "CC1(Cn2ncc(Nc3ncc4cc(Cl)c([C@@H]5CCN(C6COC6)C[C@H]5F)cc4n3)c2Cl)COC1 (single isomer, unassigned) [Ex-2.11]", "cmp": "=", "LRRK2 pIC50": 9.10}
{"molecule": "Cc1cc2cnc(Nc3cnn(C4CC4)c3Cl)nc2cc1C1CCN(C2COCC2O)CC1 (single isomer, unassigned) [Ex-2.4]", "cmp": ">", "LRRK2 pIC50": 9.20}
{"molecule": "Cc1c(Nc2ncc3cc(Cl)c(C4CCN(C(=O)[C@@H](C)O)C4)cc3n2)cnn1C1CC1 (single isomer, unassigned) [Ex-4.187]", "cmp": "=", "LRRK2 pIC50": 8.54}
{"molecule": "Cc1c(Nc2ncc3cc(Cl)c(C4CCN(C[C@H](O)c5ccc(F)c(F)c5)CC4)cc3n2)cnn1C1CC1 [Ex-4.199]", "cmp": "=", "LRRK2 pIC50": 7.96}
{"molecule": "Cc1c(Nc2ncc3cc(Cl)c([C@H]4CCN(C5COC5)C[C@@H]4F)cc3n2)cnn1C1CC1(F)F (single isomer, unassigned) [Ex-4.175]", "cmp": "=", "LRRK2 pIC50": 9.10}
{"molecule": "Cc1cc(Nc2ncc3cc(Cl)c(C4CCN(C)CC4F)cc3n2)sn1 (stereo in doubt) [Ex-4.52]", "cmp": "=", "LRRK2 pIC50": 9.06}
{"molecule": "Cc1cc2cnc(Nc3cnn(C4CC4)c3Cl)nc2cc1[C@@H]1CCN(C2COCC2F)C[C@H]1F (single isomer, unassigned) [Ex-7.9]", "cmp": "=", "LRRK2 pIC50": 9.04}
{"molecule": "Cc1c(Nc2ncc3cc(Cl)c(C4CCN(C(=O)[C@H](C)O)C4)cc3n2)cnn1C1CC1 (single isomer, unassigned) [Ex-4.190]", "cmp": "=", "LRRK2 pIC50": 8.73}
{"molecule": "O=S1(=O)CC(N2CC[C@@H](c3cc4nc(Nc5cnn(C6CC6)c5Cl)ncc4cc3Cl)[C@H](F)C2)C1 (single isomer, unassigned)", "cmp": "=", "LRRK2 pIC50": 8.52}
{"molecule": "FC(F)n1cc(Nc2ncc3cc(Cl)c(C4CCN(C5COC5)CC4)cc3n2)cn1 [Ex-4.18]", "cmp": "=", "LRRK2 pIC50": 9.16}
{"molecule": "Cc1cc2cnc(Nc3cnn(C4CC4)c3Cl)nc2cc1[C@@H]1CCN(C2COC[C@H]2O)C[C@H]1F (single isomer, unassigned) [Ex-4.136]", "cmp": "=", "LRRK2 pIC50": 8.41}
{"molecule": "F[C@@H]1CN(C2COC2)CC[C@H]1c1cc2nc(Nc3cnn(C4CC4(F)F)c3Cl)ncc2cc1Cl (single isomer, unassigned) [Ex-8.29]", "cmp": "=", "LRRK2 pIC50": 8.88}
{"molecule": "Cc1cc(Nc2ncc3cc(C)c([C@@H]4CCN([C@H]5COC[C@H]5O)C[C@H]4F)cc3n2)n(C)n1 (single isomer, unassigned) [Ex-5.10]", "cmp": "=", "LRRK2 pIC50": 6.66}

----------
Target: GST tagged truncated human mutant G2019S LRRK2 (Homo sapiens (Human), UniProt Q5S007, G2019S)
Assay: LRRK2 Km ATP LanthaScreen Assay
Assay type: biochemical
Details: G2019S LRRK2, 134 μM ATP (Km ATP), mean values
readout-label: LRRK2 pIC50

{"compound": "Cn1ncc(Nc2ncc3cc(Cl)c([C@H]4CCN([C@H]5COC[C@H]5O)C[C@@H]4F)cc3n2)c1Cl (single isomer, unassigned) [Ex-4.188]", "cmp": "=", "numeric-readout": 7.83}
{"compound": "Cc1c(Nc2ncc3cc(Cl)c(C4CCN([C@@H]5COC[C@@H]5O)CC4)cc3n2)cnn1C12CC(C1)C2 (single isomer, unassigned) [Ex-2.28]", "cmp": ">", "numeric-readout": 9.20}
{"compound": "Clc1cc2cnc(Nc3cnn(C4CC4)c3Cl)nc2cc1C1CC2(C1)CN(C1COC1)C2 [Ex-4.119]", "cmp": "=", "numeric-readout": 7.96}
{"compound": "Cc1c(Nc2ncc3cc(Cl)c(C4CCN(C[C@H](O)c5cc(F)cc(F)c5)CC4)cc3n2)cnn1C1CC1 [Ex-4.198]", "cmp": "=", "numeric-readout": 7.88}
